Test system: SNU886
Assay: Cell proliferation assay (Alamar Blue)
Format: cell-based
Conditions: SNU-886, 144 h; SNU886 liver cancer cell line; 6 days
OBSERVABLE: IC50 (µM)

1) Cc1ccc(F)c(NC(=O)Nc2ccc(-c3cccc4c3c(N)nn4C(=O)C[C@H](N)C(=O)N[C@@H](CCC(=O)N[C@@H](CCC(=O)N[C@@H](CCC(=O)N[C@@H](CCC(=O)N[C@@H](CCC(=O)N[C@@H](CCC(=O)N[C@@H](CCC(=O)N[C@@H](CCC(=O)N[C@@H](CCC(=O)O)C(=O)O)C(=O)O)C(=O)O)C(=O)O)C(=O)O)C(=O)O)C(=O)O)C(=O)O)C(=O)O)cc2)c1: 9.06
2) Cc1ccc(F)c(NC(=O)Nc2ccc(-c3cccc4c3c(N)nn4C(=O)C[C@H](N)C(=O)N[C@@H](CCC(=O)N[C@@H](CCC(=O)N[C@@H](CCC(=O)N[C@@H](CCC(=O)O)C(=O)O)C(=O)O)C(=O)O)C(=O)O)cc2)c1: 3.75
3) Cc1ccc(F)c(NC(=O)Nc2ccc(-c3cccc4c3c(N)nn4C(=O)C[C@H](N)C(=O)O)cc2)c1: 1.45

---

Test system: Li-7
Test: Cell proliferation assay (Alamar Blue)
Format: cell-based
Conditions: 144 h; Li-7 liver cancer cell line; 6 days
OBSERVABLE: IC50 (µM)

1) Cc1ccc(F)c(NC(=O)Nc2ccc(-c3cccc4c3c(N)nn4C(=O)CCCCCCCCCCCNC(=O)C[C@H](N)C(=O)N[C@@H](CCC(=O)N[C@@H](CCC(=O)N[C@@H](CCC(=O)N[C@@H](CCC(=O)N[C@@H](CCC(=O)N[C@@H](CCC(=O)N[C@@H](CCC(=O)N[C@@H](CCC(=O)N[C@@H](CCC(=O)O)C(=O)O)C(=O)O)C(=O)O)C(=O)O)C(=O)O)C(=O)O)C(=O)O)C(=O)O)C(=O)O)cc2)c1: 49.3
2) Cc1ccc(F)c(NC(=O)Nc2ccc(-c3cccc4c3c(N)nn4C(=O)CCCCCCCCCCCNC(=O)C[C@H](N)C(=O)N[C@@H](CCC(=O)O)C(=O)O)cc2)c1: 34.5
3) Cc1ccc(F)c(NC(=O)Nc2ccc(-c3cccc4c3c(N)nn4C(=O)CCCCCCCCCCCNC(=O)C[C@H](N)C(=O)N[C@@H](CCC(=O)N[C@@H](CCC(=O)N[C@@H](CCC(=O)N[C@@H](CCC(=O)O)C(=O)O)C(=O)O)C(=O)O)C(=O)O)cc2)c1: 39.6
4) Cc1ccc(F)c(NC(=O)Nc2ccc(-c3cccc4c3c(N)nn4C(=O)C[C@H](N)C(=O)N[C@@H](CCC(=O)N[C@@H](CCC(=O)N[C@@H](CCC(=O)N[C@@H](CCC(=O)O)C(=O)O)C(=O)O)C(=O)O)C(=O)O)cc2)c1: 7.26

---

Test system: SNU182
Assay: Cell proliferation assay (Alamar Blue)
Format: cell-based
Conditions: Homo sapiens, SNU-182, 144 h; SNU182 liver cancer cell line; 6 days
Experimental: 1. Instruments and Materials • Thermo 311 CO2 incubator; Haier biosafety cabinet; Molecular Devices microplate reader; Xiangyi brand L530 desktop low speed centrifuge; Olympus IX51 inverted fluorescence microscope, DMEM, RPMI 1640, MEM, DMEM/F12 1:1 medium, Fetal bovine serum, 0.25% trypsin solution, phosphate buffer (Thermo Fisher Shanghai Co., Ltd.); sigma dimethyl sulfoxide (DMSO), resazurin; 54 commercial tumor cell lines (including 26 liver cancer cell lines). […]
Recorded measurements of IC50, one per entry
OBSERVABLE: IC50 (µM)

1) Cc1ccc(F)c(NC(=O)Nc2ccc(-c3cccc4c3c(N)nn4C(=O)C[C@H](N)C(=O)O)cc2)c1 [Compound 10]: 13.3
2) Cc1ccc(F)c(NC(=O)Nc2ccc(-c3cccc4c3c(N)nn4C(=O)C[C@H](N)C(=O)N[C@@H](CCC(=O)O)C(=O)O)cc2)c1 [Compound 1]: 19.9

---

System: SNU423
Experiment: Cell proliferation assay (Alamar Blue)
Type: cell-based
Conditions: Homo sapiens, SNU-423, 144 h; SNU423 liver cancer cell line; 6 days
OBSERVABLE: IC50

1) Cc1ccc(F)c(NC(=O)Nc2ccc(-c3cccc4c3c(N)nn4C(=O)C[C@H](N)C(=O)N[C@@H](CCC(=O)N[C@@H](CCC(=O)N[C@@H](CCC(=O)N[C@@H](CCC(=O)N[C@@H](CCC(=O)N[C@@H](CCC(=O)N[C@@H](CCC(=O)N[C@@H](CCC(=O)N[C@@H](CCC(=O)O)C(=O)O)C(=O)O)C(=O)O)C(=O)O)C(=O)O)C(=O)O)C(=O)O)C(=O)O)C(=O)O)cc2)c1: 26.1 µM
2) Cc1ccc(F)c(NC(=O)Nc2ccc(-c3cccc4c3c(N)nn4C(=O)CCCCCCCCCCCNC(=O)C[C@H](N)C(=O)N[C@@H](CCC(=O)N[C@@H](CCC(=O)N[C@@H](CCC(=O)N[C@@H](CCC(=O)N[C@@H](CCC(=O)N[C@@H](CCC(=O)N[C@@H](CCC(=O)N[C@@H](CCC(=O)N[C@@H](CCC(=O)O)C(=O)O)C(=O)O)C(=O)O)C(=O)O)C(=O)O)C(=O)O)C(=O)O)C(=O)O)C(=O)O)cc2)c1: > 100 µM
3) Cc1ccc(F)c(NC(=O)Nc2ccc(-c3cccc4c3c(N)nn4C(=O)CCCCCNC(=O)C[C@H](N)C(=O)O)cc2)c1: > 100 µM

---

Test system: KM12
Assay: Cell proliferation assay (Alamar Blue)
Type: cell-based
Conditions: Homo sapiens, 144 h; KM12 tumor cell line; 6 days
Recorded measurements of IC50, one per entry
OBSERVABLE: IC50 (µM)

1) Cc1ccc(F)c(NC(=O)Nc2ccc(-c3cccc4c3c(N)nn4C(=O)CCCCCCCCCCCNC(=O)C[C@H](N)C(=O)N[C@@H](CCC(=O)N[C@@H](CCC(=O)N[C@@H](CCC(=O)N[C@@H](CCC(=O)N[C@@H](CCC(=O)N[C@@H](CCC(=O)N[C@@H](CCC(=O)N[C@@H](CCC(=O)N[C@@H](CCC(=O)O)C(=O)O)C(=O)O)C(=O)O)C(=O)O)C(=O)O)C(=O)O)C(=O)O)C(=O)O)C(=O)O)cc2)c1: 21.8
2) Cc1ccc(F)c(NC(=O)Nc2ccc(-c3cccc4c3c(N)nn4C(=O)C[C@H](N)C(=O)N[C@@H](CCC(=O)O)C(=O)O)cc2)c1: 1.89
3) Cc1ccc(F)c(NC(=O)Nc2ccc(-c3cccc4c3c(N)nn4C(=O)C[C@H](N)C(=O)N[C@@H](CCC(=O)N[C@@H](CCC(=O)N[C@@H](CCC(=O)N[C@@H](CCC(=O)N[C@@H](CCC(=O)N[C@@H](CCC(=O)N[C@@H](CCC(=O)N[C@@H](CCC(=O)N[C@@H](CCC(=O)O)C(=O)O)C(=O)O)C(=O)O)C(=O)O)C(=O)O)C(=O)O)C(=O)O)C(=O)O)C(=O)O)cc2)c1: 4.63
4) Cc1ccc(F)c(NC(=O)Nc2ccc(-c3cccc4c3c(N)nn4C(=O)CCCCCNC(=O)C[C@H](N)C(=O)O)cc2)c1: 28.5
5) Cc1ccc(F)c(NC(=O)Nc2ccc(-c3cccc4c3c(N)nn4C(=O)CCCCCCCCCCCNC(=O)C[C@H](N)C(=O)N[C@@H](CCC(=O)O)C(=O)O)cc2)c1: 7.72
6) Cc1ccc(F)c(NC(=O)Nc2ccc(-c3cccc4c3c(N)nn4C(=O)C[C@H](N)C(=O)N[C@@H](CCC(=O)N[C@@H](CCC(=O)N[C@@H](CCC(=O)N[C@@H](CCC(=O)O)C(=O)O)C(=O)O)C(=O)O)C(=O)O)cc2)c1: 2.94
7) Cc1ccc(F)c(NC(=O)Nc2ccc(-c3cccc4c3c(N)nn4C(=O)CCCCCNC(=O)C[C@H](N)C(=O)N[C@@H](CCC(=O)N[C@@H](CCC(=O)N[C@@H](CCC(=O)N[C@@H](CCC(=O)N[C@@H](CCC(=O)N[C@@H](CCC(=O)N[C@@H](CCC(=O)N[C@@H](CCC(=O)N[C@@H](CCC(=O)O)C(=O)O)C(=O)O)C(=O)O)C(=O)O)C(=O)O)C(=O)O)C(=O)O)C(=O)O)C(=O)O)cc2)c1: 70
8) Cc1ccc(F)c(NC(=O)Nc2ccc(-c3cccc4[nH]nc(N)c34)cc2)c1 [Linifanib, reference compound]: 1.39

---

Recorded measurements of pIC50, one per entry
Tested on: SNU739
Assay: Cell proliferation assay (Alamar Blue)
Assay type: cell-based
Details: SNU-739, 144 h; SNU739 liver cancer cell line; 6 days
pIC50: −log10 of the molar value.
OBSERVABLE: pIC50

1. Cc1ccc(F)c(NC(=O)Nc2ccc(-c3cccc4c3c(N)nn4C(=O)C[C@H](N)C(=O)N[C@@H](CCC(=O)O)C(=O)O)cc2)c1 [Compound 1]: 5.34
2. Cc1ccc(F)c(NC(=O)Nc2ccc(-c3cccc4[nH]nc(N)c34)cc2)c1 [Linifanib, reference compound]: 5.26
3. Cc1ccc(F)c(NC(=O)Nc2ccc(-c3cccc4c3c(N)nn4C(=O)CCCCCCCCCCCNC(=O)C[C@H](N)C(=O)N[C@@H](CCC(=O)N[C@@H](CCC(=O)N[C@@H](CCC(=O)N[C@@H](CCC(=O)O)C(=O)O)C(=O)O)C(=O)O)C(=O)O)cc2)c1 [Compound 8]: 4.19
4. Cc1ccc(F)c(NC(=O)Nc2ccc(-c3cccc4c3c(N)nn4C(=O)CCCCCNC(=O)C[C@H](N)C(=O)O)cc2)c1 [Compound 11]: 4.19
5. Cc1ccc(F)c(NC(=O)Nc2ccc(-c3cccc4c3c(N)nn4C(=O)C[C@H](N)C(=O)N[C@@H](CCC(=O)N[C@@H](CCC(=O)N[C@@H](CCC(=O)N[C@@H](CCC(=O)O)C(=O)O)C(=O)O)C(=O)O)C(=O)O)cc2)c1 [Compound 2]: 5.20
6. Cc1ccc(F)c(NC(=O)Nc2ccc(-c3cccc4c3c(N)nn4C(=O)C[C@H](N)C(=O)N[C@@H](CCC(=O)N[C@@H](CCC(=O)N[C@@H](CCC(=O)N[C@@H](CCC(=O)N[C@@H](CCC(=O)N[C@@H](CCC(=O)N[C@@H](CCC(=O)N[C@@H](CCC(=O)N[C@@H](CCC(=O)O)C(=O)O)C(=O)O)C(=O)O)C(=O)O)C(=O)O)C(=O)O)C(=O)O)C(=O)O)C(=O)O)cc2)c1 [Compound 3]: 5.09
7. Cc1ccc(F)c(NC(=O)Nc2ccc(-c3cccc4c3c(N)nn4C(=O)C[C@H](N)C(=O)O)cc2)c1 [Compound 10]: 5.41

Measured values drawn from patent US11351151B2 for this set.
